molecular target: hGSTP1-1 (Homo sapiens); construct: made in house; host or cells: E. coli BL21 (DE3); assay: hGSTP1-1 enzyme activity/inhibition assay (CDNB-GSH conjugation, 340 nm); assay type: biochemical; settings: recombinant hGSTP1-1; compound at final concentration of 100 μM; 25 °C; 100 µM
RECORDED_ENDPOINT: Enzyme Inhibition (%)
Report only the number, with the unit % understood.

Please review the entries below; each comes with its answer.
STRUCTURE_SMILES_STRING: COc1cc(/C=C/C(O)=C/C(=O)/C=C/c2ccc(O)cc2)ccc1O
TARGET_OR_TEST_SYSTEM: hGSTP1-1 (Homo sapiens)
UNITS: %
Enzyme Inhibition (%): 94.56
//
STRUCTURE_SMILES_STRING: O=C(/C=C/c1ccc(F)cc1)/C=C/c1ccc(F)cc1
TARGET_OR_TEST_SYSTEM: hGSTP1-1 (Homo sapiens)
UNITS: %
Enzyme Inhibition (%): 79.06
//
STRUCTURE_SMILES_STRING: O=C(C=Cc1ccc(O)cc1)C=Cc1ccc(O)cc1
TARGET_OR_TEST_SYSTEM: hGSTP1-1 (Homo sapiens)
UNITS: %
Enzyme Inhibition (%): 86.99

Attention now turns to another entry.
Asked: Give the reported Enzyme Inhibition (%) for this compound. O=C1C(=Cc2ccc(O)c(O)c2)CCCC1=Cc1ccc(O)c(O)c1
Given back: 88.18

---

target: hGSTP1-1 (Homo sapiens, UniProt P09211); test: hGSTP1-1 enzyme activity/inhibition assay (CDNB-GSH conjugation, 340 nm); details: recombinant hGSTP1-1; CDNB/GSH assay, 25 °C; read-out: IC50 against hGSTP1-1
Sequence (P09211 2-210 limits assumed): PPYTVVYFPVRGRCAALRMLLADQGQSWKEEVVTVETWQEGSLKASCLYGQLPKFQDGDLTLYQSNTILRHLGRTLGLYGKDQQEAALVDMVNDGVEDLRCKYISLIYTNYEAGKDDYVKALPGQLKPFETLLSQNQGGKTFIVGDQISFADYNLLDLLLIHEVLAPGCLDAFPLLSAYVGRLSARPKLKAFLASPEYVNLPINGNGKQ
List of IC50 values.
Report only the number, with the unit µM understood.

Please review the entries below; each comes with its answer.
COMPOUND: O=C(C=Cc1ccc(O)cc1)C=Cc1ccc(O)cc1 [DM96]
TARGET_OR_TEST_SYSTEM: hGSTP1-1 (Homo sapiens, UniProt P09211)
UNITS: µM
IC50: 5.45
//
COMPOUND: O=C(/C=C/c1ccc(F)cc1)/C=C/c1ccc(F)cc1 [DM109]
TARGET_OR_TEST_SYSTEM: hGSTP1-1 (Homo sapiens, UniProt P09211)
UNITS: µM
IC50: 19.5
//
COMPOUND: COc1cc(/C=C/C(O)=C/C(=O)/C=C/c2ccc(O)cc2)ccc1O [DMC, Demethoxycurcumin]
TARGET_OR_TEST_SYSTEM: hGSTP1-1 (Homo sapiens, UniProt P09211)
UNITS: µM
IC50: 37.7

Attention now turns to another entry.
Asked: Give the reported IC50 for this compound. O=C1C(=Cc2ccc(O)c(O)c2)CCCC1=Cc1ccc(O)c(O)c1 [DM151]
Given back: 11.2
